# In vitro relative activity, primary evaluation Gn-II (6) per entry
# Test system: Ent. cloacae (3), Pr. vulgaris (1), Pr. morganii (1), S. marcescen (1)
# assay.name: In vitro MIC, serial two-fold agar dilution, primary evaluation Gn-II (Ent. cloacae, Pr. vulgaris, Pr. morganii, S. marcescens)
# Assay type: cell-based
# test.conditions: CBPC = 100%; geometric mean of MICs; Mueller-Hinton agar
Express your answer in %, writing the number without its unit.

compound	display.unit	data.value
O=C([O-])C1=C(C[n+]2cccc(CCS(=O)(=O)O)c2)CSC2C(NC(=O)[C@H](NC(=O)c3cnc4cccnc4c3O)c3ccc(O)cc3)C(=O)N12 (stereo partly drawn) [BB-S620]	%	14
O=C(O)CSc1ccc[n+](CC2=C(C(=O)[O-])N3C(=O)C(NC(=O)[C@H](NC(=O)c4cnc5cccnc5c4O)c4ccc(O)cc4)C3SC2)c1 (stereo partly drawn) [BB-S636]	%	50

Okay, next one:
Task: Entry under review: O=C(O)CSc1cc[n+](CC2=C(C(=O)[O-])N3C(=O)C(NC(=O)[C@H](NC(=O)c4cnc5cccnc5c4O)c4ccc(O)c(O)c4)C3SC2)cc1 (stereo partly drawn) [BB-S639] . Reported In vitro relative activity, primary evaluation Gn-II (6)?
Output: 35

---

# assay.name: Antibiotic blood levels in mice following intramuscular administration (paper disc-agar diffusion, Escherichia coli NIHJ as assay organism)
# Format: in vivo
# test.conditions: mouse, im, I.M., 20 mg./kg., read-out: Blood level, Half-life
# half-life per entry

Consider the reported half-life for these molecules:
molecule	metric.name	data.value
O=C([O-])C1=C(C[n+]2cccc(S(=O)(=O)O)c2)CSC2C(NC(=O)[C@H](NC(=O)c3cnc4cccnc4c3O)c3ccccc3)C(=O)N12 (some centres unmarked) [BB-S607]	half-life	60 min
O=C([O-])C1=C(C[n+]2cccc(C(=O)O)c2)CSC2C(NC(=O)[C@H](NC(=O)c3cnc4cccnc4c3O)c3ccc(O)cc3)C(=O)N12 (some centres unmarked) [BB-S579]	half-life	75 min
O=C([O-])C1=C(C[n+]2cccc(C(=O)O)c2)CSC2C(NC(=O)[C@H](NC(=O)c3cnc4cccnc4c3O)c3ccc(O)c(O)c3)C(=O)N12 (some centres unmarked) [BB-S608]	half-life	50 min
O=C([O-])C1=C(C[n+]2cccc(C(=O)O)c2)CSC2C(NC(=O)[C@H](NC(=O)c3cnc4cccnc4c3O)c3ccccc3)C(=O)N12 (some centres unmarked) [BB-S606]	half-life	55 min

Task: Entry under review: O=C([O-])C1=C(C[n+]2cccc(CCS(=O)(=O)O)c2)CSC2C(NC(=O)[C@H](NC(=O)c3cnc4cccnc4c3O)c3ccc(O)cc3)C(=O)N12 (some centres unmarked) [BB-S620] . Reported half-life?
Output: 40 min

Task: Again, but for O=C(O)C=Cc1ccc[n+](CC2=C(C(=O)[O-])N3C(=O)C(NC(=O)[C@H](NC(=O)c4cnc5cccnc5c4O)c4ccc(O)c(Cl)c4)C3SC2)c1 (some centres unmarked) [BB-S602]
Output: 60 min

Task: Again, but for O=C([O-])C1=C(C[n+]2cccc(C(=O)O)c2)CSC2C(NC(=O)[C@H](NC(=O)c3cnc4cccnc4c3O)c3ccsc3)C(=O)N12 (some centres unmarked) [BB-S624]
Output: 50 min

Task: Again, but for O=C(O)Cc1ccc[n+](CC2=C(C(=O)[O-])N3C(=O)C(NC(=O)[C@H](NC(=O)c4cnc5cccnc5c4O)c4ccc(O)c(Cl)c4)C3SC2)c1 (some centres unmarked) [BB-S604]
Output: 56 min

Task: Again, but for NC(=O)c1cc[n+](CC2=C(C(=O)[O-])N3C(=O)C(NC(=O)[C@H](NC(=O)c4cnc5cccnc5c4O)c4ccc(O)cc4)C3SC2)cc1C(=O)O (some centres unmarked) [BB-S592]
Output: 55 min

Task: Again, but for O=C([O-])C1=C(C[n+]2cccc(C(=O)O)c2)CSC2C(NC(=O)[C@H](NC(=O)c3cnc4cccnc4c3O)c3ccc(O)c(Cl)c3)C(=O)N12 (some centres unmarked) [BB-S600]
Output: 70 min

Task: Again, but for O=C(O)C=Cc1ccc[n+](CC2=C(C(=O)[O-])N3C(=O)C(NC(=O)[C@H](NC(=O)c4cnc5cccnc5c4O)c4ccccc4)C3SC2)c1 (some centres unmarked) [BB-S603]
Output: 44 min

---

# assay.name: Antibiotic blood levels in mice following intramuscular administration (paper disc-agar diffusion, Escherichia coli NIHJ as assay organism)
# Type: in vivo
# test.conditions: mouse, im, I.M., 20 mg./kg., read-out: Blood level, Peak Concentration
metric.name: Cmax (ng/mL)
Express your answer in ng/mL, writing the number without its unit.

Task: Entry under review: O=C(O)CCc1ccc[n+](CC2=C(C(=O)[O-])N3C(=O)C(NC(=O)[C@H](NC(=O)c4cnc5cccnc5c4O)c4ccc(O)cc4)C3SC2)c1 (stereo partly drawn) . Reported Cmax?
Output: 10000

Task: Again, but for O=C([O-])C1=C(C[n+]2cccc(S(=O)(=O)O)c2)CSC2C(NC(=O)[C@H](NC(=O)c3cnc4cccnc4c3O)c3ccc(O)c(Cl)c3)C(=O)N12 (stereo partly drawn)
Output: 10000

Task: Again, but for O=C([O-])C1=C(C[n+]2cccc(S(=O)(=O)O)c2)CSC2C(NC(=O)[C@H](NC(=O)c3cnc4cccnc4c3O)c3ccccc3)C(=O)N12 (stereo partly drawn)
Output: 10000

---

# assay.name: Antibiotic blood levels in mice following intramuscular administration (paper disc-agar diffusion, Escherichia coli NIHJ as assay organism)
# Type: in vivo
# test.conditions: mouse, im, I.M., 20 mg./kg., read-out: Blood level, Peak Concentration
Decision: Cmax beneath 7000 ng/mL gives criterion met; Cmax meeting or exceeding 7000 ng/mL gives criterion not met.

As a guide, the following entries are already answered.
compound	qualitative.label
O=C(O)C=Cc1ccc[n+](CC2=C(C(=O)[O-])N3C(=O)C(NC(=O)[C@H](NC(=O)c4cnc5cccnc5c4O)c4ccccc4)C3SC2)c1 (some centres unmarked) [BB-S603]	criterion not met
O=C([O-])C1=C(C[n+]2ccc(CCS(=O)(=O)O)cc2)CSC2C(NC(=O)[C@H](NC(=O)c3cnc4cccnc4c3O)c3ccc(O)cc3)C(=O)N12 (some centres unmarked) [BB-S588]	criterion met
O=C(O)C=Cc1ccc[n+](CC2=C(C(=O)[O-])N3C(=O)C(NC(=O)[C@H](NC(=O)c4cnc5cccnc5c4O)c4ccsc4)C3SC2)c1 (some centres unmarked) [BB-S626]	criterion not met

Task: Determine whether this compound shows Cmax lower than 7000 ng/mL (ties excluded): O=C([O-])C1=C(C[n+]2cccc(S(=O)(=O)O)c2)CSC2C(NC(=O)[C@H](NC(=O)c3cnc4cccnc4c3O)c3ccc(O)c(O)c3)C(=O)N12 (some centres unmarked) [BB-S609]
Output: criterion not met

---

# assay.name: Antibiotic blood levels in mice following intramuscular administration (paper disc-agar diffusion, Escherichia coli NIHJ as assay organism)
# Format: in vivo
# test.conditions: mouse, im, I.M., 20 mg./kg., read-out: Blood level, Half-life
metric.name: half-life (min)
Express your answer in min, writing the number without its unit.

compound	display.unit	data.value
O=C([O-])C1=C(C[n+]2cccc(S(=O)(=O)O)c2)CSC2C(NC(=O)[C@H](NC(=O)c3cnc4cccnc4c3O)c3ccc(O)c(O)c3)C(=O)N12 (stereo partly drawn) [BB-S609]	min	51
O=C(O)C=Cc1ccc[n+](CC2=C(C(=O)[O-])N3C(=O)C(NC(=O)[C@H](NC(=O)c4cnc5cccnc5c4O)c4ccc(O)cc4)C3SC2)c1 (stereo partly drawn) [BB-S589]	min	60

Task: Entry under review: O=C(O)CSc1cc[n+](CC2=C(C(=O)[O-])N3C(=O)C(NC(=O)[C@H](NC(=O)c4cnc5cccnc5c4O)c4ccc(O)cc4)C3SC2)cc1 (stereo partly drawn) [BB-S599] . Reported half-life?
Output: 54
